Recorded values, source patent US20260226068A1.

- Study system: IL-17A/F (Homo sapiens, UniProt Q16552+Q96PD4)
- Sequence (Q16552 24-155): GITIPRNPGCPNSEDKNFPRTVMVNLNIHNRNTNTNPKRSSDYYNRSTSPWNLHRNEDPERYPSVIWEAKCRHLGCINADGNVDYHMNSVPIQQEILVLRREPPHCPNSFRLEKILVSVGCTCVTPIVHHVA
- Sequence (Q96PD4 31-163): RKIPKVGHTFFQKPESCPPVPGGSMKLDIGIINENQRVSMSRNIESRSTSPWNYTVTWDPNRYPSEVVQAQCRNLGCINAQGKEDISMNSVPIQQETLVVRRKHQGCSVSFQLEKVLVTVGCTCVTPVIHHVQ
- Assay info: IL-17A/F HEK-Blue cell assay (SEAP reporter)
- Condition description: HEK-Blue IL-17A reporter cells, IL17A/F 5 ng/mL, 20 hours, SEAP read at A630; read-out: HEK-Blue IL17AF (IC50 for IL-17A/F inhibition)
Examples of compounds with documented IC50 follow.

Some compounds with known IC50 results, for comparison:
[
  {
    "Compound": "CCn1nccc1C(=O)N[C@H](c1cn2nc(C[C@H]3C[C@H](C)CNC3=O)c(C3CCOCC3)nc2n1)C1CCC(F)(F)CC1",
    "Study system": "IL-17A/F (Homo sapiens, UniProt Q16552+Q96PD4)",
    "Endpoint": "IC50",
    "Value measured": "100 to 1000 nM"
  },
  {
    "Compound": "CCn1nccc1C(=O)N[C@H](c1cn2nc(C[C@H]3C[C@@H](C(F)(F)F)CNC3=O)c(CC3CCOC3)nc2n1)C1CCC(F)(F)CC1 (stereo partly drawn)",
    "Study system": "IL-17A/F (Homo sapiens, UniProt Q16552+Q96PD4)",
    "Endpoint": "IC50",
    "Value measured": "100 to 1000 nM"
  }
]

Consider the additional compound presented here.
Returns the measured IC50 for the input compound. Input: CCn1nccc1C(=O)N[C@H](c1cn2nc(C[C@H]3C[C@@H](C(F)(F)F)CNC3=O)c(C[C@@H]3CCOC3)nc2n1)C1CCC(F)(F)CC1 (single isomer, unassigned)
100 to 1000 nM
